Target: PRMT5-MEP50 enzyme (Homo sapiens)
Construct: One virus expresses full length human PRMT5 with Flag-tag at N-terminus
Test: In vitro assay (Assay 1): PRMT5-MEP50 high throughput mass spectrometer assay, inhibition of SAH formation
Format: biochemical
Conditions: individual measurements shown, read-out: pIC50 Assay 1 (converted)
From the text: EXPERIMENTAL PROCEDURES IN VITRO ASSAY (ASSAY 1) PRMT5-MEP50 enzyme was purchased from Charles River (Argenta). The enzyme complex was produced in insect cells (Sf9) infected simultaneously with two baculoviruses. One virus expresses full length human PRMT5 with Flag-tag at N-terminus, the second virus expresses full length MEP50 with His6-TEV cleavage at N-terminus. […]
Please use criterion met for IC50 under 600 nM and criterion not met for everything else, ties included.

[
  {
    "molecule": "Nc1ncnc2c1ncn2[C@@H]1O[C@H](CN2CC3(CCCN3)C2)[C@@H](O)[C@H]1O",
    "assignedLabel": "criterion not met"
  },
  {
    "molecule": "Nc1ncnn2c([C@@H]3O[C@H](CN4CC(F)(F)CC45CCN(CC(F)(F)F)CC5)[C@@H](O)[C@H]3O)ccc12",
    "assignedLabel": "criterion not met"
  },
  {
    "molecule": "CCNc1ncnc2c1ccn2[C@@H]1O[C@H](CN2CCCC23CCN(C)CC3)[C@@H](O)[C@H]1O",
    "assignedLabel": "criterion not met"
  },
  {
    "molecule": "CN1CCC2(CCCN2C[C@H]2O[C@@H](n3ccc4c(NCCc5ccc(F)cc5)ncnc43)[C@H](O)[C@@H]2O)CC1",
    "assignedLabel": "criterion met"
  },
  {
    "molecule": "CC(C)C(=O)O[C@H]1[C@@H](O)[C@H](n2ccc3c(N)ncnc32)O[C@@H]1CN1CCCC12CCN(C)CC2",
    "assignedLabel": "criterion not met"
  },
  {
    "molecule": "Nc1ncnc2c1ccn2[C@@H]1O[C@H](CN2CCCC3(CCNC3)C2)[C@@H](O)[C@H]1O (stereo partly shown)",
    "assignedLabel": "criterion met"
  },
  {
    "molecule": "Nc1ncnc2c1ncn2[C@@H]1O[C@H](CN2CCCC23CNC3)[C@@H](O)[C@H]1O",
    "assignedLabel": "criterion not met"
  }
]

###

target: PRMT5-MEP50 enzyme (Homo sapiens, UniProt O14744); construct: One virus expresses full length human PRMT5 with Flag-tag at N-terminus; test: In vitro assay (Assay 1): PRMT5-MEP50 high throughput mass spectrometer assay, inhibition of SAH formation; format: biochemical; settings: individual measurements shown, read-out: pIC50 Assay 1 (converted)
Sequence (O14744 whole entry): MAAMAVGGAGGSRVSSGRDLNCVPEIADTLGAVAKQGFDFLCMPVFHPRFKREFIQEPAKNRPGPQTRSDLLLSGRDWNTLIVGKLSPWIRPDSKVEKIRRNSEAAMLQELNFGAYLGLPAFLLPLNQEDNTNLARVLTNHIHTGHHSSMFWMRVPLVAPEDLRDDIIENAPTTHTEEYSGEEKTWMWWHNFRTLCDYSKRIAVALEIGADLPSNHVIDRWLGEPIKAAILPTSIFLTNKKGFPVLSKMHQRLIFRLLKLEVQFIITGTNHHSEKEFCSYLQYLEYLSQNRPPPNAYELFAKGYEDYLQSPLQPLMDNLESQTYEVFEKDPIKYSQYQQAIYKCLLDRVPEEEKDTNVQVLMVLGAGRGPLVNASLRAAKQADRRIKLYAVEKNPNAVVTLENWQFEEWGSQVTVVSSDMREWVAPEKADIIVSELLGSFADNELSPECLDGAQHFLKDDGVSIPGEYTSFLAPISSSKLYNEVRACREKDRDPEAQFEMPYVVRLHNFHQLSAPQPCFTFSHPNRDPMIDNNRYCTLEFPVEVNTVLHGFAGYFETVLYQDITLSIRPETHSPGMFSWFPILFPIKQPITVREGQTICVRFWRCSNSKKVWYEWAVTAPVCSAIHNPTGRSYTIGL
Sequence (Q9BQA1 whole entry partner): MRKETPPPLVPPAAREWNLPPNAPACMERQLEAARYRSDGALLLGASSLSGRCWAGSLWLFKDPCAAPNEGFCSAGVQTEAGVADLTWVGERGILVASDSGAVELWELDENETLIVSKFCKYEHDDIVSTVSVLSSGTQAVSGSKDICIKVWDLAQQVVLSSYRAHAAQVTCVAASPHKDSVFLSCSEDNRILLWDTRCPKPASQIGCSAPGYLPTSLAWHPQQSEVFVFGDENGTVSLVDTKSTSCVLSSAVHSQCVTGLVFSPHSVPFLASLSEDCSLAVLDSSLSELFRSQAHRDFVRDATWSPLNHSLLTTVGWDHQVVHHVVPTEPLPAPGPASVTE

[
  {
    "compound": "CN1CCC2(CCC=C2C[C@H]2C[C@@H](n3ccc4c(N)ncnc43)[C@H](O)[C@@H]2O)CC1",
    "boundType": "=",
    "IC50 / nM": 5.13
  },
  {
    "compound": "CN1CCC2(CC1)CC(F)(F)CN2CC1C[C@@H](n2ccc3c(N)ncnc32)[C@H](O)[C@@H]1O (stereo partly drawn)",
    "boundType": "=",
    "IC50 / nM": 22.4
  },
  {
    "compound": "CC(C)C(=O)O[C@@H]1[C@H](OC(=O)C(C)C)[C@@H](CN2CC(F)(F)CC23CCN(C)CC3)O[C@H]1n1ccc2c(N)ncnc21",
    "boundType": ">",
    "IC50 / nM": 10000
  },
  {
    "compound": "Nc1ncnn2c([C@@H]3O[C@H](CN4CCC(F)(F)C[C@H]4CN4CCCC4)[C@@H](O)[C@H]3O)ccc12",
    "boundType": ">",
    "IC50 / nM": 10000
  },
  {
    "compound": "CN1CCCC12CN(C[C@H]1O[C@@H](n3cnc4c(N)ncnc43)[C@H](O)[C@@H]1O)C2",
    "boundType": "=",
    "IC50 / nM": 66100
  },
  {
    "compound": "Nc1ncnc2c1ccn2[C@@H]1O[C@H](CN2CCCC23CCN(Cc2cccnc2)CC3)[C@@H](O)[C@H]1O",
    "boundType": "=",
    "IC50 / nM": 309
  },
  {
    "compound": "Nc1ncnc2c1ccn2[C@@H]1O[C@H](CN2CCCC23CCN(Cc2nccs2)CC3)[C@@H](O)[C@H]1O",
    "boundType": "=",
    "IC50 / nM": 4790
  },
  {
    "compound": "Nc1ncnc2c1ncn2[C@@H]1O[C@H](CN2CCC23CCNC3)[C@@H](O)[C@H]1O (stereo partly drawn)",
    "boundType": "=",
    "IC50 / nM": 2400
  },
  {
    "compound": "CCN1CCC2(CC1)CC(F)(F)CN2C[C@H]1O[C@@H](n2ccc3c(N)ncnc32)[C@H](O)[C@@H]1O",
    "boundType": "=",
    "IC50 / nM": 15.5
  },
  {
    "compound": "CCN1CCC2(CCCN2C[C@H]2O[C@@H](c3ccc4c(N)ncnn34)[C@H](O)[C@@H]2O)CC1",
    "boundType": "=",
    "IC50 / nM": 1950
  },
  {
    "compound": "CC(C)C(=O)O[C@@H]1[C@@H](CN2CC(F)(F)CC23CCNCC3)C[C@@H](n2ccc3c(N)ncnc32)[C@@H]1OC(=O)C(C)C",
    "boundType": ">",
    "IC50 / nM": 10000
  },
  {
    "compound": "CC(C)C(=O)O[C@@H]1[C@H](OC(=O)C(C)C)[C@@H](CN2CCCC23CCNCC3)O[C@H]1n1ccc2c(N)ncnc21",
    "boundType": ">",
    "IC50 / nM": 10000
  },
  {
    "compound": "Nc1ncnc2c1ccn2[C@@H]1O[C@H](CN2C(C(F)(F)F)CCC23CCNCC3)[C@@H](O)[C@H]1O (single isomer, unassigned) [Compound 115]",
    "boundType": "=",
    "IC50 / nM": 23.4
  },
  {
    "compound": "Nc1ncnc2c1ncn2[C@@H]1O[C@H](CN2CCCC3(CNC3)C2)[C@@H](O)[C@H]1O",
    "boundType": "=",
    "IC50 / nM": 126
  },
  {
    "compound": "Nc1ncnn2c([C@@H]3O[C@H](CN4CC(F)(F)CC45CCNCC5)[C@@H](O)[C@H]3O)ccc12",
    "boundType": "=",
    "IC50 / nM": 50.1
  },
  {
    "compound": "CN1CCC2(CC1)CC(F)(F)CN2C[C@H]1O[C@@H](n2ccc3c(Cl)ncnc32)[C@H](O)[C@@H]1O",
    "boundType": "=",
    "IC50 / nM": 372
  },
  {
    "compound": "Nc1ncnc2c1ncn2[C@@H]1O[C@H](CN2CC3(CCCNC3)C2)[C@@H](O)[C@H]1O",
    "boundType": "=",
    "IC50 / nM": 21400
  },
  {
    "compound": "N#CCN1CCC2(CCCN2C[C@H]2O[C@@H](n3ccc4c(N)ncnc43)[C@H](O)[C@@H]2O)CC1",
    "boundType": "=",
    "IC50 / nM": 69.2
  },
  {
    "compound": "Nc1ncnc2c1ccn2[C@@H]1O[C@H](CN2CCCC23CCCNCC3)[C@@H](O)[C@H]1O (single isomer, unassigned) [Compound 118]",
    "boundType": "=",
    "IC50 / nM": 35.5
  },
  {
    "compound": "CN1CCC2(CC1)CCN(C[C@H]1O[C@@H](n3cnc4c(N)ncnc43)[C@H](O)[C@@H]1O)C2",
    "boundType": "=",
    "IC50 / nM": 22400
  },
  {
    "compound": "CN1CCC2(CC1)CN(C[C@H]1O[C@@H](n3cnc4c(N)ncnc43)[C@H](O)[C@@H]1O)C2",
    "boundType": "=",
    "IC50 / nM": 70800
  },
  {
    "compound": "CN1CCC2(CCCN2C[C@H]2O[C@@H](n3cc(F)c4c(N)ncnc43)[C@H](O)[C@@H]2O)CC1",
    "boundType": "=",
    "IC50 / nM": 51.3
  },
  {
    "compound": "N#CCN1CCC2(CCCN2C[C@H]2O[C@@H](c3ccc4c(N)ncnn34)[C@H](O)[C@@H]2O)CC1",
    "boundType": "=",
    "IC50 / nM": 295
  },
  {
    "compound": "Nc1ncnc2c1ccn2[C@@H]1O[C@H](CN2C(C(F)(F)F)CCC23CCNCC3)[C@@H](O)[C@H]1O (single isomer, unassigned) [Compound 116]",
    "boundType": "=",
    "IC50 / nM": 151
  },
  {
    "compound": "NCC1CCCN1C[C@H]1O[C@@H](n2ccc3c(N)ncnc32)[C@H](O)[C@@H]1O (stereo partly drawn)",
    "boundType": "=",
    "IC50 / nM": 28.8
  },
  {
    "compound": "Nc1ncnc2c1ccn2[C@@H]1O[C@H](CN2CCCC3(CNCCO3)C2)[C@@H](O)[C@H]1O (single isomer, unassigned) [Compound 33]",
    "boundType": "=",
    "IC50 / nM": 240
  },
  {
    "compound": "Nc1ncnc2c1ncn2[C@@H]1O[C@H](CN2CC3(CCNC3)C2)[C@@H](O)[C@H]1O",
    "boundType": "=",
    "IC50 / nM": 77600
  }
]
